// data source = patent US8957074B2

System Under Test: CDK4/cyclin D1 (Homo sapiens (Human))
Sequence (P11802 whole entry): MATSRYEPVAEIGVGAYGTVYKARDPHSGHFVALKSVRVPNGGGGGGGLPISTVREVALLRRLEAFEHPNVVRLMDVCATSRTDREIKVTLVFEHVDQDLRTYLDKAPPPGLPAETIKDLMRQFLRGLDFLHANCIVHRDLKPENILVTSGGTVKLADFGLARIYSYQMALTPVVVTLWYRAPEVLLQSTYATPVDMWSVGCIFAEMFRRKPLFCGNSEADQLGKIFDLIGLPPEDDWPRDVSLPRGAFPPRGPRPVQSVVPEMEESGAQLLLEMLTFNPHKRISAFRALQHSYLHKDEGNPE
Sequence (P24385 whole entry partner): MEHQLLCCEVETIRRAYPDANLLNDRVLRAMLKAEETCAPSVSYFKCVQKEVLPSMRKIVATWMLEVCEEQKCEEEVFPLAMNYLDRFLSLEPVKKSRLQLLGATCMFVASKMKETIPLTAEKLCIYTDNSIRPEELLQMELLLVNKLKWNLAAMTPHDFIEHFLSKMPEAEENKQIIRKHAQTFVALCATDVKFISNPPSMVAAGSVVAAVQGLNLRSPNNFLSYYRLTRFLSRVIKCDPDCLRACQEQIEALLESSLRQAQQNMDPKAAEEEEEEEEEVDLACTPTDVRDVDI
Method Notes: CDK4/cyclin D1 enzymatic activity assay (TR-FRET, phosphorylation of pRb at Ser780)
Assay type: biochemical
Assay Conditions: 0.3 nM CDK4/cyclin D1, 150 nM biotin-pRb (773-924), 3 μM ATP, 60 min at 22° C.; read-out: Biochemical CDK4 enzyme IC50
Description: CDK4/Cyclin D1 Enzymatic Activity Assay An assay for monitoring CDK4/cyclin D1-catalyzed phosphorylation of pRb at the Ser780 site was performed using TR-FRET in a 384-well format, and was used for IC50 determination and kinetic analysis. […] 3 μM ATP was added last to initiate the reaction. The reaction was quenched with 10 μL of 240 mM EDTA-Na (pH 8.0) after 60 min incubation at 22° C. Human CDK4/cyclin D1 was expressed in Sf21 cells via baculovirus infection.
Endpoint Name: IC50 (nM)
Express the result in nM but write the number alone.

The cases that follow already have their IC50 on record.
>>> df
                                   molecule  readout_number
0  CN(C)C(=O)c1cc2cnc(Nc3ccc(N4CC5CC4CN5)cn3)nc2n1C1CCCC1 (stereo not shown)              41
1  CN(C)C(=O)c1cc2cnc(Nc3ccc(N4C[C@@H]5CNC[C@@H]5CC4=O)cn3)nc2n1C1CCCCCC1 (stereo in doubt)               3
2  CN(C)C(=O)c1cc2cnc(Nc3ccc(N4C[C@]5(CCCNC5)OC4=O)cn3)nc2n1C1CCCC1               8
3  CN(C)C(=O)c1cc2cnc(Nc3ccc(C(=O)N4C[C@H]5CN[C@H](C5)C4)cn3)nc2n1C1CCCC1               9

// lookup IC50 | system=CDK4/cyclin D1 (Homo sapiens (Human)) | key= CN(C)C(=O)c1cc2cnc(Nc3ccc(N4CC5CCC(CC4=O)N5)cn3)nc2n1C1CCC1 (stereo not shown) 8

GET /values?readout=IC50&system=CDK4/cyclin D1 (Homo sapiens (Human))&item= CN(C)C(=O)c1cc2cnc(Nc3ccc(N4CCN5CCCCC5C4=O)cn3)nc2n1C1CCCC1 (stereo not shown) 71

Recorded IC50 for "CN(C)C(=O)c1cc2cnc(Nc3ccc(N4C[C@]5(CCCNCC5)OC4=O)cn3)nc2n1C1CCCC1" with CDK4/cyclin D1 (Homo sapiens (Human)), please? 15

Please tell me: IC50 of "CNC(=O)c1cc2cnc(Nc3ccc(N4C[C@H]5CC[C@@H](CC4=O)N5C)cn3)nc2n1C1CCCC1" , system CDK4/cyclin D1 (Homo sapiens (Human))? 15

Request - read-out IC50 | tested on CDK4/cyclin D1 (Homo sapiens (Human)) | molecule "CN(C)C(=O)c1cc2cnc(Nc3ccc(N4C[C@@H]5CNC[C@@H]5C4=O)cn3)nc2n1C1CCCCCC1" 4
